- System: U251 CNS
Your response should consist of one outcome taken from active, inactive

Example entries begin here.
MOLECULE: COC(=O)c1ccc2c(c1)nc(-c1ccc(Cl)cc1)n2-c1cc(C(C)(C)C)[nH]n1
LABEL_VALUE: inactive

MOLECULE: CC(CN(CP(=O)([O-])[O-])CP(=O)([O-])[O-])N(CP(=O)([O-])[O-])CP(=O)([O-])[O-].N[C@@H]1CCCC[C@@H]1N.[Pt+2] (centres undefined)
LABEL_VALUE: inactive

Q: For this molecule, state the assay outcome: Cc1nc2cc(O)c(O)cc2cc1Oc1ccc(NC(=O)Nc2ccc(Cl)c(Cl)c2)cc1
Ans: inactive

Q: Another: Cc1c2c(nn1-c1ccc(S/N=C3\SCC(=O)CN3c3ccccc3)cc1)-c1ccccc1CC2
Ans: inactive

Q: Try this molecule too: C=C1C(=O)O[C@H]2[C@H]1CC/C(COC(=O)CCC(=O)OC/C1=C/CC[C@@]3(C)O[C@H]3[C@H]3OC(=O)C(=C)[C@@H]3CC1)=C\CC[C@@]1(C)O[C@@H]21
Ans: inactive

---

- System: M14 melanoma
- EXPERIMENT_DESCRIPTION: NCI tumour cell line growth inhibition, 48 h
Could you label it Satisfied if measured TGI is 40 µM or higher, and Not satisfied otherwise?

Q: Please check the record CCOC(=O)C1(C(=O)OCC)C[C@H]2CON=C2[C@@H]1c1ccc(C(F)(F)F)cc1 and state if its TGI is at or above 40 µM.
Ans: Satisfied

Q: Record: COc1ccccc1NC(=S)N/N=C(/c1ccccc1)c1ccccn1
Ans: Not satisfied

Q: Please give the result for Cc1[nH]n(C(=O)c2ccccc2O)c(=O)c1/C=C1\C(=O)C=Cc2ccccc21 too.
Ans: Not satisfied

Q: Now consider Cc1c(Cl)cccc1NC(=O)C(=O)C1C(=O)NC(=O)NC1=O and answer again.
Ans: Satisfied

Q: Next: COc1ccc2c(c1)CC[C@@H]1C2CC[C@]2(C)OC(=O)CCC12 (stereo not given in full)
Ans: Not satisfied

Q: Queued: CC1CCN(c2nnc(Cl)cc2C(=O)c2ccccc2)CC1
Ans: Satisfied

Q: Same question, CCOc1ccc2c(c1)/C(=C\C=C\C1CC(C)C3CC(OCC)CCC3N1CC)CC(C)N2CC (stereo not given) this time
Ans: Not satisfied

Q: Ok, now Cc1cc(Cl)ccc1N1C(=O)C(=O)C(c2nc3ccccc3s2)C(=O)C1=O
Ans: Satisfied

Q: # repeat for N#C/C(=C/N1CCN(C(=O)c2ccco2)C1=S)C(N)=O
Ans: Satisfied

Q: Item: CC(C)(C)c1ccccc1NS(=O)(=O)c1ccccc1
Ans: Satisfied

---

- System: HT29 colon
- EXPERIMENT_DESCRIPTION: NCI tumour cell line growth inhibition, 48 h; in the data active means GI50 below about 0.43 µM; inactive means the rest
Answer with one of the outcomes given here: active, inactive

Example cases with answers are listed next.
COMPOUND: COc1ccc(C(=O)Nc2cccc(C3CC(=O)c4c(cc(OC)c(OC)c4OC)O3)c2)cc1 (stereo unspecified)
TARGET_SYSTEM: HT29 colon
LABEL_VALUE: inactive

COMPOUND: Cc1ccc(/C=C2\CCOC2=O)cc1
TARGET_SYSTEM: HT29 colon
LABEL_VALUE: inactive

COMPOUND: C[n+]1c2ccccc2c(NC2CCNCC2)c2[nH]c3ccccc3c21
TARGET_SYSTEM: HT29 colon
LABEL_VALUE: active

COMPOUND: CC(=O)OC1CC2(O)C(CCC3(C)C(c4ccc(=O)oc4)CCC32O)C2(C)CCC(O)C=C12 (stereo unspecified)
TARGET_SYSTEM: HT29 colon
LABEL_VALUE: active

COMPOUND: Cc1c2c(nn1-c1ccc(S/N=C3\SCC(=O)CN3c3ccccc3)cc1)-c1ccccc1CC2
TARGET_SYSTEM: HT29 colon
LABEL_VALUE: inactive

Q: Record request — test call for COc1ccc2c(CNCCCCO)cc3cc4c(cc3c2c1)OCO4
Ans: inactive

Q: Now consider N#C/C(=C/N1CCN(C(=O)c2ccco2)C1=S)C(N)=O .
Ans: inactive

Q: Same again, this time with O=Nc1c(-c2cccc([N+](=O)[O-])c2)nc2ncccn12
Ans: inactive

Q: What do you get for C=C1C(=O)O[C@H]2[C@H]1CC/C(Cn1cc(CCC)nn1)=C\CC[C@@]1(C)O[C@@H]21 ?
Ans: inactive

Q: Consider next the compound COC(=O)c1ccc2c(c1)nc(-c1ccc(Cl)cc1)n2-c1cc(C(C)(C)C)[nH]n1 in the same way.
Ans: inactive

Q: Ok, now CC1=C(C(=O)Nc2ccc(F)c(Cl)c2)C(c2cccc(Cl)c2)NC(=O)N1 (stereo unspecified)
Ans: inactive

Recorded values, source PubChem BioAssay (NCI).
